Where do these numbers come from? They come from paper PMC7662900.

# study system: microsomal APN from porcine kidney microsomes (Sus scrofa)
# Sequence (P15145 1-963): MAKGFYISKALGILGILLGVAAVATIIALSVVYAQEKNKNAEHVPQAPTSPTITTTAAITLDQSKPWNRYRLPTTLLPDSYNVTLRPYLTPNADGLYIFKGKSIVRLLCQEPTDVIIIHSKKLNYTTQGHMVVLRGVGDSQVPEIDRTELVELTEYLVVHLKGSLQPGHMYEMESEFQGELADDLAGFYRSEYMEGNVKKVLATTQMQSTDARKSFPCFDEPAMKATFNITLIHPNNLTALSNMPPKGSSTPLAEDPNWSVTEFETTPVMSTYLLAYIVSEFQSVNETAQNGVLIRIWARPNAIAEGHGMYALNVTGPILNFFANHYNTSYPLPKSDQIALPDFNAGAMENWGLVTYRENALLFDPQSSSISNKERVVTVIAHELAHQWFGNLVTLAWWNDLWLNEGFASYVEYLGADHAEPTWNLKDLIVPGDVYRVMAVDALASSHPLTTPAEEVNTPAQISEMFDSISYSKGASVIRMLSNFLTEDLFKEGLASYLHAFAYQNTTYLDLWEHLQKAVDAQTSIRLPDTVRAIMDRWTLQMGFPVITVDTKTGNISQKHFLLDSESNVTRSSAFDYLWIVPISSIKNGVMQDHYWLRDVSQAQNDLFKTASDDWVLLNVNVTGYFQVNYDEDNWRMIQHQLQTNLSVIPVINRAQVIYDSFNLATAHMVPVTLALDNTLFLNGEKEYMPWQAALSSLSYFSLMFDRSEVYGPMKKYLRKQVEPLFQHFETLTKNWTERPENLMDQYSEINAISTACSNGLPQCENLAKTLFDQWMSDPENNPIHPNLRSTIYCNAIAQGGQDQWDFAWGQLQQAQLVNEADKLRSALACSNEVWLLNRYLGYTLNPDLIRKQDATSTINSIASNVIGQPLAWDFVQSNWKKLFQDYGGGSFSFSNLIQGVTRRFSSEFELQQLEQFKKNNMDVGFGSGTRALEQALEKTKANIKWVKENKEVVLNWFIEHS
# Lookup of reported pIC50 keyed by entry
Give only the number. pIC50 is defined as minus log10 of concentration in molar units.

Here are 2 molecules together with their reported answers.
molecule | value measured
CC(C)C[C@H](NC(=O)[C@@H](O)[C@H](N)Cc1ccccc1)C(=O)NCCCCCC(=O)Nc1ccc(NC(=O)CCCCCCC(=O)NO)cc1.O=C(O)C(F)(F)F [P1] | 5.46
CC(C)C[C@H](NC(=O)[C@@H](O)[C@H](N)Cc1ccccc1)C(=O)NCCOCCOCC(=O)Nc1cccc(C(=O)NO)c1 | 5.58

Input: If you can, please state the reported pIC50 value of CC(C)C[C@H](NC(=O)[C@@H](O)[C@H](N)Cc1ccccc1)C(=O)NCCOCCOCCNC(=O)c1cccc(C(=O)NO)c1.O=C(O)C(F)(F)F [P2] .
Output: 5.78

----------
# study system: UniProt Q9UBN7
# Sequence (Q9UBN7 1-1215): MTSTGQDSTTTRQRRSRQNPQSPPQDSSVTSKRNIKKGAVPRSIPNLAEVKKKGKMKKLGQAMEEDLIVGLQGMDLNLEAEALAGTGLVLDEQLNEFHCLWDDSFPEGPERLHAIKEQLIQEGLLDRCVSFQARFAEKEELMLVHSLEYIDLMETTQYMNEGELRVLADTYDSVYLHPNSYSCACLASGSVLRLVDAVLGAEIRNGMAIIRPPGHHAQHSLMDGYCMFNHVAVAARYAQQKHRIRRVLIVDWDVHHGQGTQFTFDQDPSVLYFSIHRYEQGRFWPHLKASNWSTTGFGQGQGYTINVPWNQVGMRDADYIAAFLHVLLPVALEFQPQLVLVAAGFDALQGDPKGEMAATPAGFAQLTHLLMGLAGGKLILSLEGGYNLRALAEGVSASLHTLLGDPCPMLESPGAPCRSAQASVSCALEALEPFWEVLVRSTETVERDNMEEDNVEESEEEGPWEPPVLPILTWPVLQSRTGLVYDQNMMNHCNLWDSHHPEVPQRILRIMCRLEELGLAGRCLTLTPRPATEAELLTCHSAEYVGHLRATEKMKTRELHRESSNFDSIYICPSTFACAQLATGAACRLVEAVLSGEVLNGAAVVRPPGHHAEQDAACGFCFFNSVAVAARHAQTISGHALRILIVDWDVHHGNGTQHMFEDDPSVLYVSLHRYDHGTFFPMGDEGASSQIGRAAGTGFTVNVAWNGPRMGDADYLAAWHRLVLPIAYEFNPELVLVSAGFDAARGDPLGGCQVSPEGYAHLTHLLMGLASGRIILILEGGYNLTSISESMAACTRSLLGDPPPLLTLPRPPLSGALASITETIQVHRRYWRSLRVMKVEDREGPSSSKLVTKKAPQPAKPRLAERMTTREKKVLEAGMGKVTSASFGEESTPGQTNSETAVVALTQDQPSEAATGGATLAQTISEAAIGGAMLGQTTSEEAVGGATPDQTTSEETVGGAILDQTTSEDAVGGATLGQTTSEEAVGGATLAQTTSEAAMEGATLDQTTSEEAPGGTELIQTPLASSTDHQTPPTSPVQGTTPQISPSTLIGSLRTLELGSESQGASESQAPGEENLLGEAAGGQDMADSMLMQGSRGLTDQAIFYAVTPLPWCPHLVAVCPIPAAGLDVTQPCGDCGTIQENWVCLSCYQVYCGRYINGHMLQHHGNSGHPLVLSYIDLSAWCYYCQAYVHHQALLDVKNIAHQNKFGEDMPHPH
measured quantity: IC50 (nM)
// note: answer is a bare numeric in nM

Input: If you can, please state the reported IC50 value of CC(C)C[C@H](NC(=O)[C@@H](O)[C@H](N)Cc1ccccc1)C(=O)NCCCCCC(=O)Nc1ccc(NC(=O)CCCCCCC(=O)NO)cc1.O=C(O)C(F)(F)F [P1] .
Output: 11.5

----------
# study system: UniProt Q13547
# Sequence (Q13547 whole entry): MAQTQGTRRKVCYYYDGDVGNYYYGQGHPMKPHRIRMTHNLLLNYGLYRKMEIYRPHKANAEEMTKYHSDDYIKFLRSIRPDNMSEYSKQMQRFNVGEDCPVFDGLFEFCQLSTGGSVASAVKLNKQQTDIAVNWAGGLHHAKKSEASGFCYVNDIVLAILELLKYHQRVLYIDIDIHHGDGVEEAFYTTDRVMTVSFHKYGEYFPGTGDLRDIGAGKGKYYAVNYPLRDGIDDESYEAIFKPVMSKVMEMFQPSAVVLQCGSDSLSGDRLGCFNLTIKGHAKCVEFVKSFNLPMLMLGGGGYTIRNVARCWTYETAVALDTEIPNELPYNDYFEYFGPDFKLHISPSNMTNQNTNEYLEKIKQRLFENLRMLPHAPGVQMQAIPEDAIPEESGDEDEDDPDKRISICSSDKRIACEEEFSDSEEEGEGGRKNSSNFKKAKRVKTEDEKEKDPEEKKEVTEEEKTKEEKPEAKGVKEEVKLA
measured quantity: IC50 (µM)
// note: answer is a bare numeric in µM

Input: If you can, please state the reported IC50 value of CC(C)C[C@H](NC(=O)[C@@H](O)[C@H](N)Cc1ccccc1)C(=O)NCCCCCC(=O)Nc1ccc(NC(=O)CCCCCCC(=O)NO)cc1.O=C(O)C(F)(F)F [P1] .
Output: 0.03
